IC50 for Coagulation factor XI (Homo sapiens), merged from several publications.

1) CC[C@@H](NC(=O)N1C(=O)[C@H](Cc2ccnc(N)c2)[C@H]1C(=O)N(C)c1ccn(C)n1)c1cc(C)ccc1F; < 10 nM
2) CC[C@@H](NC(=O)N1C(=O)[C@H](Cc2ccnc(N)c2)[C@H]1C(=O)N(C)c1ccccc1)C1CCCCC1; < 10 nM

Which IC50 is reported with Coagulation factor XI (Homo sapiens) for this entry: CS(=O)(=O)[C@@H]1[C@@H](Cc2ccnc(N)c2)C(=O)N1C(=O)NC(c1ccccc1)c1ccccc1 ? 100 to 1000 nM

* * *

pIC50: −log10 of the molar value.
Below: compounds with pIC50 recorded for Coagulation factor XI (Homo sapiens) in separate published works.
observationType: pIC50

Past entries and their recorded results:
1. Nc1c(C(=O)N2CCC[C@@]3(C2)OC(=O)Nc2ccc(Cl)c(F)c23)cnn1-c1ccccc1C1CC1; 6.52
2. Nc1cc(-c2ccccc2Cl)nn1CC(=O)N1CC[C@@]2(C1)OC(=O)Nc1ccc(Cl)c(F)c12; 6.73
3. C[C@]1(O)CC[C@@H](CC(C(=O)Nc2ccc(C(=O)O)cc2)c2ccc(-c3c(C(F)F)ccc(Cl)c3F)c[n+]2[O-])CC1 (single isomer, unassigned); 8.57
4. C[C@@H]1Cc2ccc(Cl)cc2-c2cc(=O)n([C@@H](CCOC3CC3)C(=O)Nc3ccc(C(N)=O)cc3)cc2CO1 (single isomer, unassigned); 8.18
5. COC(=O)Nc1ccc2c(c1)NC(=O)C(C)(C)CCC[C@H](c1ccc(-c3cc(F)ccc3-c3cnn(C(F)(F)F)c3)c[n+]1[O-])c1nc-2c(C)[nH]1; 8.70

1: CCC(c1ccc(F)cc1)c1nnc(C(=O)N2CC(C)(C)C[C@@]3(C2)OC(=O)Nc2ccc(Cl)c(F)c23)[nH]1 (single isomer, unassigned)
2: COCCC(C(=O)Nc1ccc2nccn2c1)n1cc2c(cc1=O)-c1cc(Cl)ccc1CC1(CC1)NC2=O (stereo not shown)
When 1 and 2 are compared, which has the higher number for pIC50? Answer by quoting the chosen item's label. 2

* * *

pIC50: −log10 of the molar value.
// merged dataset of pIC50 values, system = Coagulation factor XI (Homo sapiens), multiple refs
observationType: pIC50

Solved cases below.
1) Nc1ccc2cc(NC(=O)[C@@H]3CC[C@@H]4CC(c5c(-n6cnnn6)ccc(Cl)c5F)=CC(=O)N43)ccc2n1; 8.10
2) N#CC1(CC(C(=O)Nc2ccc(C(=O)O)cc2)c2ccc(-c3c(C(F)(F)F)ccc(Cl)c3F)c[n+]2[O-])CC1 (racemic); 8.12

1: C[C@@H]1Cc2ccc(Cl)cc2-c2cc(=O)n([C@@H](C[C@@H]3COCCO3)C(=O)Nc3ccc(C(N)=O)c(F)c3)cc2CO1 (single isomer, unassigned)
2: Cc1ncc(-c2c(C(F)F)ccc(Cl)c2F)nc1C(=O)Nc1cnn(Cc2cnc(N3C[C@H]4C[C@H]4C3=O)c(F)c2)c1
3: NC(=O)c1ccc(NC(=O)[C@H](C[C@@H]2COCCO2)n2cc3c(cc2=O)-c2cc(Cl)ccc2C[C@@H](C(F)(F)F)OC3)cc1 (single isomer, unassigned)
4: CC1(O)CN(C[C@@H]2[C@@H]3C[C@@H]3CN2c2ncc(Cn3cc(NC(=O)c4cncc(-c5c(C(F)F)ccc(Cl)c5F)n4)cn3)cn2)C1
5: Cc1nc(N2C[C@H]3C[C@H]3C2=O)ncc1[C@@H](CO)n1cc(NC(=O)c2cncc(-c3c(C(F)F)ccc(Cl)c3F)n2)cn1
Would you mind ranking these compounds by ascending pIC50? List the labels according to the requested ordering. 5, 2, 4, 1, 3
(5: 5.16, 2: 6.03, 4: 6.44, 1: 8.18, 3: 9.05)

* * *

// compounds with reported IC50 on Coagulation factor XI (Homo sapiens), multi-publication

1) CC[C@@H](NC(=O)N1C(=O)[C@H](Cc2cc(C)nc(N)c2)[C@H]1C(=O)N(C)c1nccn1C)c1ccc(C)c(C)c1; < 0.01 µM
2) Cc1cc(C(C)n2cc(NC(=O)c3nc(-c4c(C(F)F)ccc(Cl)c4F)cnc3C(C)O)cn2)cnc1N1C[C@H]2C[C@H]2C1=O (single isomer, unassigned); 2.03 µM
3) CC[C@@H](NC(=O)N1C(=O)[C@H](Cc2cc(C)nc(N)c2)[C@H]1C(=O)N(C)c1cnn(C)c1)c1cccc(C)c1C; 0.01 to 0.1 µM

May I ask what IC50 has been recorded for COc1cn(C(CC2COCCO2)C(=O)Nc2ccc(C(N)=O)nc2)c(=O)cc1-c1cc(Cl)ccc1OCCF (centres unmarked) ? 0.014 µM

How about O=C(O)c1ccc(NC(=O)[C@H](Cc2ccccc2)c2ccc(-c3c(F)ccc(Cl)c3F)c[n+]2[O-])cc1 ? 0.00363 µM

What about this compound? CC[C@@H](NC(=O)N1C(=O)[C@H](Cc2cc(C)nc(N)c2)[C@H]1C(=O)N(C)c1cnn(C)c1)c1cc(F)ccc1F < 0.01 µM

Follow-up entry: Cc1ncc(-c2c(C(F)F)ccc(Cl)c2F)nc1C(=O)Nc1cnn(C2(c3cnc(N4C[C@H]5C[C@H]5C4=O)c(C)n3)CC2)c1 > 10 µM

Item: CC[C@@H](NC(=O)N1C(=O)[C@H](Cc2ccnc(N)c2)[C@H]1C(=O)N(C)c1ccccc1)c1ccc(C)nc1 < 0.01 µM

* * *

Published IC50 for Coagulation factor XI (Homo sapiens, UniProt P03951), assembled from different documents, is shown next.

1. C[C@H](NC(=O)N1C(=O)[C@H](Cc2ccnc(N)c2)[C@H]1C(=O)O)c1ccc2c(c1)OC(F)(F)O2; 100 to 1000 nM
2. Cc1nc([C@H](C)n2cc(NC(=O)c3nc(-c4c(C(F)F)ccc(Cl)c4F)cnc3C)cn2)ncc1N1C[C@H]2C[C@H]2C1=O; > 10000 nM
3. CC(c1ncc(N2C[C@H]3C[C@H]3C2=O)cn1)n1cc(NC(=O)c2cncc(-c3c(C(F)F)ccc(Cl)c3F)n2)cn1 (single isomer, unassigned); > 10000 nM
4. CN(C(=O)[C@@H]1[C@@H](Cc2ccnc(N)c2)C(=O)N1C(=O)NCc1cccc(Cl)c1)c1cnn(C)c1; 10 to 100 nM
5. Nc1cc(C[C@H]2C(=O)N(C(=O)N[C@@H](C3CCCCC3)C(F)(F)F)[C@@H]2C(=O)O)ccn1; < 10 nM
6. O=C(O)[C@@H]1[C@@H](CCc2cccc(Cl)c2F)C(=O)N1C(=O)N[C@@H](C1CCCCC1)C(F)(F)F; 100 to 1000 nM
7. CC[C@@H](NC(=O)N1C(=O)[C@H](Cc2ccnc(N)c2)[C@H]1C(=O)N(C)c1nnco1)c1ccccc1; < 10 nM

From here, focus on the item given below.
Fill in the blank: the reported IC50 of O=C(O)C1CCc2ccc(NC(=O)[C@@H]3CC[C@@H]4CC(c5c(-n6cc(C(F)(F)F)nn6)ccc(Cl)c5F)=CC(=O)N43)cc21 (some centres unmarked) is ____. > 50 nM
